# experiment summary: in vitro
# details: human, hela cells, % viability
quantity measured: viability at 28.5 h, 10 µM
// return the numeric value with its unit appended

Recorded viability at 28.5 h, 10 µM of O=S(=O)(Nc1cccc(Cl)c1)c1ccc(Cl)c(Cl)c1 , please.
79.3%

Recorded viability at 28.5 h, 10 µM of CN(C)c1ccc(-c2nccnc2NCc2ccc(S(C)(=O)=O)cc2)cc1 , please.
104%

Recorded viability at 28.5 h, 10 µM of O=C(NCC(c1ccccc1)N1CCOCC1)c1cnc(-c2ccc(F)cc2)c(-c2ccco2)c1 (stereo not drawn) , please.
95.7%

Recorded viability at 28.5 h, 10 µM of COc1ccccc1/C=N/N=C(/Nc1ccc(C)cc1)c1nc2ccccc2s1 , please.
124%

Recorded viability at 28.5 h, 10 µM of COc1ccccc1NC(=O)NC(=O)C1CCN(C(C)=O)CC1 , please.
119%

Recorded viability at 28.5 h, 10 µM of Nc1ncc(-c2ccc(C(=O)N3CCOCC3)cc2)nc1-c1ccc(CCC(=O)O)cc1 , please.
97.3%

Recorded viability at 28.5 h, 10 µM of O=C(CSCc1ccc(Cl)cc1Cl)Nc1c[nH]c(=O)[nH]c1=O , please.
90.4%

Recorded viability at 28.5 h, 10 µM of COc1cccc(OC)c1-c1cn2ccnc2c(NC2CC2)n1 , please.
104%

Recorded viability at 28.5 h, 10 µM of CCCC(=O)Nc1nnc(-c2ccc(Cl)cc2)o1 , please.
91.8%

* * *

# maps each entry to its viability at 28.5 h, 10 µM
# experiment summary: in vitro
# details: human, hela cells, % viability
Give a bare numeral; the unit % is implied.

{"smiles input": "CCCc1[nH]nc(O)c1CCc1ccc(OC)cc1", "viability at 28.5 h, 10 µM, %": 102}

Recorded viability at 28.5 h, 10 µM of O=C(c1ccno1)N1C[C@@H]2OCC(=O)N(CC3CC3)[C@@H]2C1 , please.
83.5

Recorded viability at 28.5 h, 10 µM of Cc1ccc(S(=O)(=O)Cc2cccc(C(=O)N3CCN(Cc4ccccc4)CC3)c2)cc1 , please.
93

Recorded viability at 28.5 h, 10 µM of O=C(CN1C(=O)[C@H]2CCCN2c2ncccc21)NCCc1c[nH]c2ccccc12 , please.
107

Recorded viability at 28.5 h, 10 µM of CC(C)(C)OC(=O)NCc1ccc(CNCc2cccc(Cl)c2)cc1 , please.
108

Recorded viability at 28.5 h, 10 µM of Fc1ccc(NC(=S)NCC2CC2)c(F)c1 , please.
100

Recorded viability at 28.5 h, 10 µM of COc1ccc(S(=O)(=O)N2CCN(C(=O)COc3ccc(C)cc3)CC2)cc1 , please.
90.2

Recorded viability at 28.5 h, 10 µM of Cc1ccc(Oc2ccc(NC(=O)Cn3cnnc3C#N)cc2)cc1 , please.
106

Recorded viability at 28.5 h, 10 µM of FC(F)(F)c1ccc(-c2c[nH]c([C@@H]3COCCN3Cc3csnn3)n2)cc1 , please.
92.2

* * *

# experiment summary: in vitro
# details: human, hela cells, % viability
quantity measured: viability at 28.5 h, 10 µM (%)
Give a bare numeral; the unit % is implied.

{"molecule": "COCCNC(=O)CC1Sc2ccccc2NC1=O (centres unmarked)", "unit info": "%", "viability at 28.5 h, 10 µM": 98.9}
{"molecule": "CC(=O)NC(c1nccs1)C1CCCN(CC2CCCCC2)C1 (centres unmarked)", "unit info": "%", "viability at 28.5 h, 10 µM": 95.1}
{"molecule": "Fc1ccccc1Oc1nnnn1-c1ccccc1", "unit info": "%", "viability at 28.5 h, 10 µM": 98.2}
{"molecule": "O=C(N1CCCC1)N1CCN(c2cncc(-c3ccc(O)cc3)n2)CC1 [CBK126947T]", "unit info": "%", "viability at 28.5 h, 10 µM": 93.5}

Recorded viability at 28.5 h, 10 µM of COc1ccc2c3c([nH]c2c1)C(C)N(CCC(=O)NN)CC3 (centres unmarked) , please.
93.2

Ref: paper PMC12040169
